# log10 of IC50 per entry
target: human SLC6A19 and TMEM27 (Homo sapiens); construct: expressed in transfected cells; test: Radiolabelled (3H) leucine uptake in CHO cells with doxycycline-inducible expression of human SLC6A19 and TMEM27 (Example B-1); type: cell-based; settings: CHO cells with doxycycline-inducible expression of human SLC6A19 and TMEM27, read-out: SLC6A19_Radioligand Uptake Assay IC50
Sequence (Q695T7 whole entry): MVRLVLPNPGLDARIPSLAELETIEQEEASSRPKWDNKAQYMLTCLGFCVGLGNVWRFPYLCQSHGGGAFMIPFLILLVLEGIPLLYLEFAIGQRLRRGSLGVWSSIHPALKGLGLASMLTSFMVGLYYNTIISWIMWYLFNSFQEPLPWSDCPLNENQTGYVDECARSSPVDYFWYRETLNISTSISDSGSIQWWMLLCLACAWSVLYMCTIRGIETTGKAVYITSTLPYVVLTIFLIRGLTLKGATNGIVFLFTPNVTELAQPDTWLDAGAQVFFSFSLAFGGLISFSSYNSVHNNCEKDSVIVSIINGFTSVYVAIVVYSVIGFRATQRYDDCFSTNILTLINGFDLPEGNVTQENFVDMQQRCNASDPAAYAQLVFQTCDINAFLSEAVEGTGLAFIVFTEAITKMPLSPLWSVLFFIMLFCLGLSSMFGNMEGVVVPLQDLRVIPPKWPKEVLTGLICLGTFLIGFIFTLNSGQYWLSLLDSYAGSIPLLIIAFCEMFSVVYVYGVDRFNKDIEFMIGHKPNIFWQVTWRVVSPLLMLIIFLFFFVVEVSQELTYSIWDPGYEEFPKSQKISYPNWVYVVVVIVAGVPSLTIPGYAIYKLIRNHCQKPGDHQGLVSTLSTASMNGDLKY
Sequence (Q9HBJ8 15-222 partner): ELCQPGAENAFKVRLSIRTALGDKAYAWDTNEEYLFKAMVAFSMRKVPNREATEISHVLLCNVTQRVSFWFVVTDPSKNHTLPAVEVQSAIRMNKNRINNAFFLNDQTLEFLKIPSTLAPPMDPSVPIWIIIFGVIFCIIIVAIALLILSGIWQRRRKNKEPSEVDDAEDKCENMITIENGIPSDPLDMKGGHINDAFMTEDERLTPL
Form field - Quantity: IC50; Unit: nM; Scale: log10

Reference set (4 entries):
1. Cc1cc(COc2cc3[nH]c(CNC(=O)C(C)F)cc3cc2Cl)on1 (racemic) = 1.88
2. CC1(C(=O)NCc2cc3cc(Cl)c(OCCC4CC(F)(F)C4)cc3[nH]2)CC1 = 3.16
3. O=C(CC12CC(C1)C2)NCc1cc2cc(Cl)c(OCc3cscn3)cc2[nH]1 = 3.48
4. CC1(C(=O)NCc2cc3cc(Cl)c(CCn4ncnn4)cc3[nH]2)CC1 = 2.95

log10 of IC50 for "CC1(C(=O)NCc2cc3cc(Cl)c(OCc4cc(C(F)(F)F)on4)cc3[nH]2)CC1" ? 1.83

Then what about the compound "CO[C@@H](C)C(=O)NCc1cc2cc(Cl)c(OCc3cscn3)cc2[nH]1" ? 2.29

Same read-out for "CC1(C(=O)NCc2cc3cc(F)c(OCc4ccccn4)cc3[nH]2)CC1" ? 2.22

Now the same for "Cc1cc(COc2cc3[nH]c(CNC(=O)[C@@H]4COCCO4)cc3cc2Cl)on1" 2.91

Item: "C[C@@H](O)C(=O)NCc1cc2cc(Cl)c(OCc3cscn3)cc2[nH]1" 2.88

Can you handle "CNC(=O)NCc1cc2cc(F)c(OCc3cc(C)on3)cc2[nH]1" next? 2.63
